A collection of binders and their measured Mouse BCMA response
measured_target: T1, His-tagged mouse BCMA (Acro Biosystems, BCA-M52H3) (mouse, UniProt O88472 1-49)
T1 construct: Bought protein; not shown: His tag
T1 chain: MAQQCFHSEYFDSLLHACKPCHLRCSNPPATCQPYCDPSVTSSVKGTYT
test_name: BLI, His-tagged mouse BCMA on HIS1K tip
Give only the figure.

binder	Mouse BCMA response
539-SP1-C8 hIgG1 (antibody, V domains shown, Human-mouse chimeric antibody, human IgG1 format; also called [2]) VH: EVQLQQSGPELVKPGSSVKMSCKASGYTFTNYVMHWVKQKPGQGLEWIGYILPYNDGTKYNEKFKGKATLTSDKSSSTAYMEFSVLTSEDSAVYYCARYDYEGSFDYWGQGTALTVSS VL: DIQMTQTTSSLSASLGDRVTISCRASQDISNYLNWYQQKPDGTVKLLMCYTSRLHSGVPSRFSGSGSGTDFSLTISNLEQEDIATYFCQQGNTFPPTFGGGTKLEIKR	0.86

Ask | What value of Mouse BCMA response has been recorded for this entry: 538-SP5-B10 hIgG1 (antibody, V domains shown, Human-mouse chimeric antibody, human IgG1 format) VH: EVQLQQSGPELVKPGASVKMSCKASGYTFTSYVMHWVKQKPGRGLEWIAYILPFNDVTKYNEKFKGKATLTSDKSSNTAYMELSSLTSEDSAVYYCARWEWDDGYFDYWGQGTTLTVSS VL: DAVMTQTPLSLPVSLGDQASISCRSSQSLENSNGNTYLNWYLQKPGQSPQLLIYRVSNRFSGVLDRFSGSGSGTDFTLKISRVEAEDLGVYFCLQVSHVPFTFGAGTKLELKR
Reply | 1.31

Source listed as patent US20230374147A1.
